These measurements were taken from ChEMBL document CHEMBL1136264.

# Target Under Test: Sphingosine 1-phosphate receptor 3 (Homo sapiens)
# Experiment: In vitro binding affinity towards Endothelial differentiation G-protein coupled receptor 3 in CHO cells using [3H]S1P as radioligand relative to SIP
# Type: cell-based
Reported Endpoint: Relative binding affinity (%)
Write the answer as a number in %, unit excluded.

> print(dat)
                          smiles.string  recorded.result
1  CCCCCCCCCCCCCCCC[C@@H](N)COP(=O)(O)O               29

Enquiry: Find the recorded Relative binding affinity belonging to CCCCCCCCCCCCCCC[C@@H](O)[C@@H](N)COP(=O)(O)O and report it.
Return: 86

Enquiry: Find the recorded Relative binding affinity belonging to CCCCCCCCCCCCC/C=C/[C@H](O)[C@H](N)COP(=O)(O)O and report it.
Return: 20

Enquiry: Find the recorded Relative binding affinity belonging to CCCCCCCCCCCCCCC[C@H](O)[C@@H](N)COP(=O)(O)O and report it.
Return: 51

Enquiry: Find the recorded Relative binding affinity belonging to CCCCCCCCCCCCC/C=C/[C@H](O)[C@@H](N)COP(=O)(O)O and report it.
Return: 46

###

# Target Under Test: Sphingosine 1-phosphate receptor 1 (Homo sapiens)
# Experiment: In vitro binding affinity towards Endothelial differentiation G-protein coupled receptor 1 in CHO cells using [3H]S1P as radioligand relative to SIP
# Type: cell-based
Reported Endpoint: Relative binding affinity (%)
Write the answer as a number in %, unit excluded.

> print(dat)
                              smiles.string                         target.under.test          reported.endpoint  recorded.result
1  CCCCCCCCCCCCC/C=C/[C@H](O)[C@H](N)COP(=O)(O)O  Sphingosine 1-phosphate receptor 1 (Homo sapiens)  Relative binding affinity              7.4

Enquiry: Find the recorded Relative binding affinity belonging to CCCCCCCCCCCCCCC[C@@H](O)[C@@H](N)COP(=O)(O)O and report it.
Return: 41

Enquiry: Find the recorded Relative binding affinity belonging to CCCCCCCCCCCCCCC[C@H](O)[C@@H](N)COP(=O)(O)O and report it.
Return: 12

Enquiry: Find the recorded Relative binding affinity belonging to CCCCCCCCCCCCC/C=C/[C@H](O)[C@@H](N)COP(=O)(O)O and report it.
Return: 27
